Target: MSH2 (MutSβ subunit);MSH3 (MutSβ subunit) (human;human, UniProt P43246;P20585 1-934;1-1137, |)
Test: SPR; 10 mM Mg2+; FAN1 SPR: 20 mM Tris-HCl pH 7.6, 70 mM NaCl, 10 mM CaCl2, 1 mM EDTA, 0.01% P-20, 1 mM DTT, 0.05 mg/ml BSA, 5°C; MutSβ SPR: 10 mM Tris-HCl pH 7.6, 150 mM NaCl, 10 mM MgCl2, 1 mM EDTA, 1 mM DTT, 0.005% P-20 (samples held at 10°C)
Details: protein: recombinant;recombinant; tags: ;; copies: 1;1; label: 5'-biotin on strand 1; 5'-digoxigenin on strand 2; central 9-nt extrusion in strand 1, 20 bp each side, blunt
Observable: pKd
Numbers only, as −log10 of the molar value.

pKd reported for this binder (CAG)3 extrusion mr78 (dsDNA) DNA 1: CGAATTTCTAGACTCGAGATCAGCAGCAGCTGCTAGGTCGAGTCTAGAG DNA 2: CTCTAGACTCGACCTAGCAGATCTCGAGTCTAGAAATTCG : 8.92
